# key: entry, value: IC50
assay: Cytotoxicity against mouse J774.G8 cells after 48 hrs by MTT assay; format: functional, cell-based; details: J774.G8, 48 h
READOUT: IC50 (µg/mL)

1) CCCC[C@@H](C(=O)O)N1C(=O)/C(=C/c2ccc(-c3cccc(C(F)(F)F)c3)cc2)SC1=S ... 50.3
2) O=C(O)[C@H](C1CCCCC1)N1C(=O)/C(=C/c2ccc(-c3cccc(C(F)(F)F)c3)cc2)SC1=S ... 38
3) CCCC[C@@H](C(=O)O)N1C(=O)/C(=C/c2ccc(-c3ccc(F)c(C(F)(F)F)c3)cc2)SC1=S ... 47.7

Measured values drawn from ChEMBL document CHEMBL5620397 for this set.
